The reported numbers originate from PubChem BioAssay AID1963974.

- Tested on: 648629-189-R-J1-PDC spheroids with HUVEC/MSC, viability
- test-summary: Anticancer human tumor 648629-189-R-J1-PDC patient-derived bladder carcinoma cell line growth inhibition [PI3K]; active means viability on the fitted dose curve at most 10% of control; inactive means the rest
- reported-conditions: second compound 1 µM; first compound 0.3 µM
Outcome field: choose from Yes (active), No (inactive)

Some entries whose results are on file:
GET /call?item= Cn1cnc2c(F)c(Nc3ccc(Br)cc3Cl)c(C(=O)NOCCO)cc21 + CC(Nc1ccc2c(c1)OCCn1cc(N3C(=O)OCC3C(F)F)nc1-2)C(N)=O returns the recorded outcome of this test. No

GET /call?item= Cn1cnc2c(F)c(Nc3ccc(Br)cc3Cl)c(C(=O)NOCCO)cc21 + Cc1nc(NC(=O)N2CCCC2C(N)=O)sc1-c1ccnc(C(C)(C)C(F)(F)F)c1 returns the recorded outcome of this test. No

GET /call?item= Cn1cnc2c(F)c(Nc3ccc(Br)cc3Cl)c(C(=O)NOCCO)cc21 + COc1c(OCCCN2CCOCC2)ccc2c3n(c(=NC(=O)c4cnc(N)nc4)nc12)CCN3 returns the recorded outcome of this test. Yes

Further cases:
GET /call?item= Cn1cnc2c(F)c(Nc3ccc(Br)cc3Cl)c(C(=O)NOCCO)cc21 + CC(Nc1ncnc2nc[nH]c12)c1cc2cccc(Cl)c2c(=O)n1-c1ccccc1 returns the recorded outcome of this test. No

----------
Recorded measurements of viability, T/C, one per entry
- System: 648629-189-R-J1-PDC spheroids with HUVEC/MSC, viability
- test-summary: Anticancer human tumor 648629-189-R-J1-PDC cell line growth inhibition [PI3K];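 further: spheroids exposed to agents for seven days before reading; percent of vehicle control luminescence where 100% = DMSO treated spheroids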
- reported-conditions: second compound 0.01 µM; first compound 3.16 µM; stronger effect = lower value
Quick reminder: number only, in %, skip the unit.

Consider the reported viability, T/C for these compounds:
compound CC(Cn1ccc(-c2ccc(C#N)c(Cl)c2)n1)NC(=O)c1cc(C(C)O)[nH]n1 (stereo not given) + CC(Nc1ccc2c(c1)OCCn1cc(N3C(=O)OCC3C(F)F)nc1-2)C(N)=O , viability, T/C observed: 89.9

compound CC1(C)CCC(Nc2ncc(C(F)(F)F)c(-c3c[nH]c4c(P(C)(C)=O)c(C#N)ccc34)n2)CN1 (stereo not given) + CC(Nc1ccc2c(c1)OCCn1cc(N3C(=O)OCC3C(F)F)nc1-2)C(N)=O , viability, T/C observed: 38.2

compound C=CC(=O)N1CCN(c2nc(=O)n(-c3c(C)ccnc3C(C)C)c3nc(-c4c(O)cccc4F)c(F)cc23)C(C)C1 (stereo not given) + CC(Nc1ccc2c(c1)OCCn1cc(N3C(=O)OCC3C(F)F)nc1-2)C(N)=O , viability, T/C observed: 115

compound C[C@@H](NC(=O)c1ncnc(N)c1Cl)c1ncc(C(=O)Nc2cc(C(F)(F)F)c(Cl)cn2)s1 + CC(Nc1ccc2c(c1)OCCn1cc(N3C(=O)OCC3C(F)F)nc1-2)C(N)=O , viability, T/C observed: 112

Consider the additional compound presented here.
compound Cn1nccc1Nc1nccc(-c2ccn(C(CO)c3ccc(Cl)c(F)c3)c(=O)c2)n1 (stereo not given) + COc1c(OCCCN2CCOCC2)ccc2c3n(c(=NC(=O)c4cnc(N)nc4)nc12)CCN3 , viability, T/C observed: 107

----------
Recorded measurements of viability, T/C, one per entry
- Tested on: 648629-189-R-J1-PDC spheroids with HUVEC/MSC, viability
- test-summary: Anticancer human tumor 648629-189-R-J1-PDC cell line growth inhibition [PI3K];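 further: spheroids exposed to agents for seven days before reading; percent of vehicle control luminescence where 100% = DMSO treated spheroids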
- reported-conditions: compound 0.01 µM; stronger effect = lower value

compound "Cn1ncnc1[C@H]1c2n[nH]c(=O)c3cc(F)cc(c23)N[C@@H]1c1ccc(F)cc1" , viability, T/C observed: 92.9% [middle of 4 runs]

Further cases:
compound CC(Nc1ccc2c(c1)OCCn1cc(N3C(=O)OCC3C(F)F)nc1-2)C(N)=O (stereo unspecified) , viability, T/C observed: 99.7% [middle of 8 runs]

compound "CC(=O)c1c(C)c2cnc(Nc3ccc(N4CCNCC4)cn3)nc2n(C2CCCC2)c1=O" , viability, T/C observed: 97.2% [middle of 4 runs]
